Target: T1, Peptide-32 (cysteine pairing not given here; also: biotinylated, site not given here)
T1 peptide: PDFCYMYGWPICDS
Assay text: ELISA, Fab on captured biotin-peptide
Where no end group is shown, it is not given here.
The threshold is 30 nM. Values of EC50 beneath it are tagged fulfilled; values meeting or exceeding it are tagged not fulfilled.

TBD-21 (HC F108A) (Fab, V domains shown, Fab; also called HC F108A mutant) VH: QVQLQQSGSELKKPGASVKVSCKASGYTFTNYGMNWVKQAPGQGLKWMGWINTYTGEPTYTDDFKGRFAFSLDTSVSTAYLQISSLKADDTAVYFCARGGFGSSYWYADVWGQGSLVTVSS VL: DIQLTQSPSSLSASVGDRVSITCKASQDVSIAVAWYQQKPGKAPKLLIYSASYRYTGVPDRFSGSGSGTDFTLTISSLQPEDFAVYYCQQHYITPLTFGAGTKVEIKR: fulfilled
TBD-22 (HC D109A) (Fab, V domains shown, Fab; also called HC D109A mutant) VH: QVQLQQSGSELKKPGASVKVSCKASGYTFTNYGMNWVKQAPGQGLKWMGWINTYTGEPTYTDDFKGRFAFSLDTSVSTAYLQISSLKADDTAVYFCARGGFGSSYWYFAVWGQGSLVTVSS VL: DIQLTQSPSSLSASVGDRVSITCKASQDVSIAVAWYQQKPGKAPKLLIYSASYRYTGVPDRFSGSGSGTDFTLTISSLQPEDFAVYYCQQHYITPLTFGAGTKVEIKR: fulfilled
TBD-17 (HC S104A) (Fab, V domains shown, Fab; also called HC S104A mutant) VH: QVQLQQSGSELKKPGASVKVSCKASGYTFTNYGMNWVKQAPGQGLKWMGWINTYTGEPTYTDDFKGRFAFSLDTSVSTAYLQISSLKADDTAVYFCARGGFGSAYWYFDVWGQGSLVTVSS VL: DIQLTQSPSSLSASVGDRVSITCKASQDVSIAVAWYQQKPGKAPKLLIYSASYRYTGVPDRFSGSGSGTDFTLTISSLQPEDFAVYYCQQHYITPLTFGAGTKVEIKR: not fulfilled
TBD-11 (HC R98A) (Fab, V domains shown, Fab; also called HC R98A mutant) VH: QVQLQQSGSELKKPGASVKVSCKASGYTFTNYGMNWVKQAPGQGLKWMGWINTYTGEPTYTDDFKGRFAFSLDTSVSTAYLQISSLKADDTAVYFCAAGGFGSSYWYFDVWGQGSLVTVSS VL: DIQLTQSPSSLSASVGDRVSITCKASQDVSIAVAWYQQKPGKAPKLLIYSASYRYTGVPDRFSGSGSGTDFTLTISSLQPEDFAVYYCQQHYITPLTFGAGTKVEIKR: not fulfilled
TBD-6 (LC I93A) (Fab, V domains shown, Fab; also called LC I93A mutant) VH: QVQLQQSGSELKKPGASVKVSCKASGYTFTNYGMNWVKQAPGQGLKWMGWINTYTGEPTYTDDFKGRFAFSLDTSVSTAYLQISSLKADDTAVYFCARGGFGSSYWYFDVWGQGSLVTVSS VL: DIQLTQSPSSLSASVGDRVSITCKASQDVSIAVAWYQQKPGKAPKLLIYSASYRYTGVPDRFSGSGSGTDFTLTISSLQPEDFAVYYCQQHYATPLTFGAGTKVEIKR: fulfilled

Turning to the following binder.
-- ask EC50 strictly < 30 nM for this binder? TBD-1 wt (Fab, V domains shown, Fab; the heavy chain entry is VH-CH1; also called wild-type anti-TROP2 Fab (hRS7); TROP2 Fab) VH: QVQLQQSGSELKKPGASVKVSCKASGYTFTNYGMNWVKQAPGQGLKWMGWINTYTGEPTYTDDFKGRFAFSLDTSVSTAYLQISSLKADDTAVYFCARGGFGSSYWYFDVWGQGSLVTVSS VL: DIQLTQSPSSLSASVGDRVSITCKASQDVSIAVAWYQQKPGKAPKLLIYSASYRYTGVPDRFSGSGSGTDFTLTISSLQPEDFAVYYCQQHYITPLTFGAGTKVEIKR
-- reply not fulfilled
